- System: fibrin-induced microglia activation
- assay_summary: Image-based assay of fibrin-induced microglia activation (HTS and dose response)
- Assay type: cell-based, rat
- experimental_setup: primary microglia HTS, fibrin stimulation, compounds at 10 μM
Counter-ions that a name gives are not always drawn.
Label rule, in plain words: Fibrin % inhibition of -20% and up is yes, under -20% is no.

# bool: Fibrin % inhibition of CCC1(c2ccc(N)cc2)CCC(=O)NC1=O (racemic) >= -20%
yes

Item CC(=O)Oc1c(C)cccc1C(=O)O with Fibrin % inhibition of -20% or above?
yes

Given CC(=O)Oc1cccc2c1C(=O)c1c(OC(C)=O)cc(C(=O)O)cc1C2=O , state whether its Fibrin % inhibition is at least -20%.
no

Form field: Fibrin % inhibition at least -20%? Entry: COC(=O)CCc1ccc(OCC(O)CNC(C)C)cc1 (centres unmarked) [Esmolol, Esmolol Hydrochloride]
yes

Is reported Fibrin % inhibition greater than or equal to -20% here: CNCC(=O)c1ccc(O)c(O)c1.Cl [Adrenolone Hydrochloride]
yes
